# credit: patent US20060153834A1

- subjectOfTest: Human IgG (HIgG) (human)
- methodSummary: batch adsorption isotherm, PBS pH 7.4, HWRGWV resin at 0.040 mmol/g, Langmuir fit
No end group written: not given here.
readoutType: Kd (µM)
Numeric answer only, unit µM assumed.

INPUT: Query Kd for HWRGWVA-{Toyopearl AF‑Amino‑650 resin}
OUTPUT: 20.3
